For each record, write down the corresponding remaining at 1 h, 1 µM.
Tested on: Pepsin
Construct: purchased Merck Millipore
experiment: Protease stability in simulated gastric fluid (Pepsin-SGF, FaSSGF)
Format: in vitro ADME
condition: simulated gastric fluid with pepsin (Pepsin-SGF), 60 min, 1 μM peptide, 37° C., read-out: FaSSGF 60 (min), remaining percent of peptide
Starred links: 1 amine or outer side, 2 acyl side, 3 side chain; linkers in the order of their positions; H or OH if unused. Positions of bridges follow the written chain, without caps; N, C: chain ends. Non-standard residues stand in square brackets, D forms with d. Residues, ends and D or L forms follow the SMILES beside them. *: point of attachment. X3 = CN(CCCCC(=O)N[C@@H](CS[*:2])C(=O)[*:1])[*:3]; Trp(7-Me) = Cc1cccc2c(C[C@H](N)C(=O)O)c[nH]c12; X1 = O=C(CCCCN[*:3])N[C@@H](CS[*:2])C(=O)[*:1]; 2Nal = N[C@@H](Cc1ccc2ccccc2c1)C(=O)O; AEF = NCCOc1ccc(C[C@H](N)C(=O)O)cc1; 3Pal = N[C@@H](Cc1cccnc1)C(=O)O; αMeL = CC(C)C[C@](C)(N)C(=O)O; Me2NCH2CH2 = CN(C)CC*; Aib = CC(C)(N)C(=O)O; Sar = CNCC(=O)O
Give bare numbers, in %.

Query string: Which remaining at 1 h, 1 µM is reported for this compound? CC(=O)NCCCC[C@@H]1NC(=O)[C@H](Cc2c[nH]c3c(C)cccc23)NC(=O)[C@@H](NC(C)=O)CCCCNC(=O)[C@@H]2CSSC[C@H](NC1=O)C(=O)N[C@@H](Cc1ccc(OCCN(C)C)cc1)C(=O)N[C@@H](Cc1ccc3ccccc3c1)C(=O)N[C@@](C)(CC(C)C)C(=O)N[C@H](C(=O)N[C@@H](CC(N)=O)C(=O)N[C@@H](Cc1cccnc1)C(=O)N(C)CC(N)=O)CCC(=O)NCCCCC(=O)N2 [compound 73] (Ac-K[Trp(7-Me)]K(Ac)CY(Me2NCH2CH2)[2Nal][αMeL]EN[3Pal][Sar]-NH2; linker 1-4-8 via X1)
Result string: 87

Now look at this one.
Query string: Which remaining at 1 h, 1 µM is reported for this compound? CC(=O)N[C@H]1CCCCNC(=O)[C@@H]2CSSC[C@H](NC(=O)[C@H](CCC(N)=O)NC(=O)[C@H](Cc3c[nH]c4ccccc34)NC1=O)C(=O)N[C@@H](Cc1ccc(OCCN)cc1)C(=O)N[C@@H](Cc1ccc3ccccc3c1)C(=O)NC(C)(C)C(=O)N[C@H](C(=O)N[C@@H](CC(N)=O)C(=O)NCC(N)=O)CCC(=O)N(C)CCCCC(=O)N2 [compound 15] (Ac-KWQC[AEF][2Nal][Aib]ENG-NH2; linker 1-4-8 via X3)
Result string: 30

* * *

For each record, write down the corresponding pIC50.
subject of test: human interleukin-23 receptor (recombinant human IL-23R-Fc chimera) (Homo sapiens, UniProt Q5VWK5)
Construct: Fc (IgG Fc fusion)
experiment: Human ELISA IL23/IL23R (assay for specific human IL23R antagonists)
Assay type: binding
condition: Table 10; read-out: Human ELISA IL23/IL23R IC50
Starred links: 1 amine or outer side, 2 acyl side, 3 side chain; linkers in the order of their positions; H or OH if unused. Positions of bridges follow the written chain, without caps; N, C: chain ends. Non-standard residues stand in square brackets, D forms with d. Residues, ends and D or L forms follow the SMILES beside them. *: point of attachment. X5 = CN(C(=O)CCC(=O)[*:3])[C@@H](CS[*:2])C(=O)[*:1]; X3 = CN(CCCCC(=O)N[C@@H](CS[*:2])C(=O)[*:1])[*:3]; Trp(7-Me) = Cc1cccc2c(C[C@H](N)C(=O)O)c[nH]c12; 2Nal = N[C@@H](Cc1ccc2ccccc2c1)C(=O)O; AEF = NCCOc1ccc(C[C@H](N)C(=O)O)cc1; 3Pal = N[C@@H](Cc1cccnc1)C(=O)O; Lys(Me) = CNCCCC[C@H](N)C(=O)O; αMeL = CC(C)C[C@](C)(N)C(=O)O; Thp = NC1(C(=O)O)CCOCC1; Me2NCH2CH2 = CN(C)CC*; Aib = CC(C)(N)C(=O)O; Ava = NCCCCC(=O)O; βAla = NCCC(=O)O; Sar = CNCC(=O)O
One number for each entry, as −log10 of the molar value.

Before answering, review these 5 worked examples.
Query string: Which pIC50 is reported for this molecule? CC(=O)N[C@H]1CCCCNC(=O)[C@@H]2CSSC[C@H](NC(=O)[C@H](CC(C)C)NC(=O)[C@H](Cc3c[nH]c4c(C)cccc34)NC1=O)C(=O)N[C@@H](Cc1ccc(OCCN(C)C)cc1)C(=O)N[C@@H](Cc1ccc3ccccc3c1)C(=O)N[C@@](C)(CC(C)C)C(=O)N[C@H](C(=O)N[C@@H](CC(N)=O)C(=O)N[C@@H](Cc1cccnc1)C(=O)N(C)CC(N)=O)CCCCN(C)C(=O)CCC(=O)N2C [compound 69] (Ac-K[Trp(7-Me)]LCY(Me2NCH2CH2)[2Nal][αMeL][Lys(Me)]N[3Pal][Sar]-NH2; linker 1-4-8 via X5)
Result string: 8.66

Query string: Next molecule: CC(=O)N[C@H]1CCCCNC(=O)[C@@H]2CSSC[C@H](NC(=O)[C@H](CCC(N)=O)NC(=O)[C@H](Cc3c[nH]c4ccccc34)NC1=O)C(=O)N[C@@H](Cc1ccc(OCCN)cc1)C(=O)N[C@@H](Cc1ccc3ccccc3c1)C(=O)NC(C)(C)C(=O)N[C@H](C(=O)N[C@@H](CC(N)=O)C(=O)NCC(N)=O)CCC(=O)N(C)CCCCC(=O)N2 [compound 15] (Ac-KWQC[AEF][2Nal][Aib]ENG-NH2; linker 1-4-8 via X3)
Result string: 9.70

Query string: Next molecule: CC(=O)NCCCC[C@@H]1NC(=O)[C@H](Cc2c[nH]c3c(C)cccc23)NC(=O)[C@H]([C@@H](C)O)NC(=O)[C@H](CC(N)=O)NC(=O)[C@@H]2CSSC[C@H](NC1=O)C(=O)N[C@@H](Cc1ccc(OCCN(C)C)cc1)C(=O)N[C@@H](Cc1ccc3ccccc3c1)C(=O)NC1(CCOCC1)C(=O)N[C@H](C(=O)N[C@@H](CC(N)=O)C(=O)N[C@@H](Cc1cccnc1)C(N)=O)CCC(=O)NCCCCC(=O)N2 [compound 51] ([Ava]CNT[Trp(7-Me)]K(Ac)CY(Me2NCH2CH2)[2Nal][Thp]EN[3Pal]-NH2; disulfide 2-7; lactam N-11)
Result string: 9.72

Query string: Next molecule: COc1ccc(C[C@@H]2NC(=O)[C@@H]3CSSC[C@H](NC(=O)CCC(=O)NCCCC[C@@H](C(=O)N[C@@H](CC(N)=O)C(=O)N[C@@H](CC(N)=O)C(N)=O)NC(=O)C(C)(C)NC(=O)[C@H](Cc4ccc5ccccc5c4)NC2=O)C(=O)N[C@@H](CC(N)=O)C(=O)N[C@@H]([C@@H](C)O)C(=O)N[C@@H](Cc2c[nH]c4ccccc24)C(=O)N[C@@H](CCC(N)=O)C(=O)N3)cc1
Result string: 9.15

Query string: Next molecule: CC(C)C[C@@H](NC(=O)[C@H](CC(N)=O)NC(=O)[C@@H]1CCC(=O)NCCCCC(=O)N[C@H]2CSSC[C@H](NC(=O)[C@H](CCC(N)=O)NC(=O)[C@H](Cc3c[nH]c4ccccc34)NC(=O)[C@H]([C@@H](C)O)NC(=O)[C@H](CC(N)=O)NC2=O)C(=O)N[C@@H](Cc2ccc(OCCN(C)C)cc2)C(=O)N[C@@H](Cc2ccc3ccccc3c2)C(=O)N[C@@](C)(CC(C)C)C(=O)N1)C(N)=O [compound 10] ([Ava]CNTWQCY(Me2NCH2CH2)[2Nal][αMeL]EN[dL]-NH2; disulfide 2-7; lactam N-11)
Result string: 9.24

Provide pIC50 for all items below, preserving their order.
1. CC(=O)NCCCC[C@@H]1NC(=O)[C@H](Cc2c[nH]c3c(C)cccc23)NC(=O)[C@H]([C@@H](C)O)NC(=O)[C@H](CC(N)=O)NC(=O)[C@@H]2CSSC[C@H](NC1=O)C(=O)N[C@@H](Cc1ccc(OCCN(C)C)cc1)C(=O)N[C@@H](Cc1ccc3ccccc3c1)C(=O)NC(C)(C)C(=O)N[C@H](C(=O)N[C@@H](CC(N)=O)C(=O)N[C@@H](Cc1c[nH]cn1)C(N)=O)CCC(=O)NCCCCC(=O)N2 [compound 20] ([Ava]CNT[Trp(7-Me)]K(Ac)CY(Me2NCH2CH2)[2Nal][Aib]ENH-NH2; disulfide 2-7; lactam N-11)
2. CC(=O)NCCCC[C@@H]1NC(=O)[C@H](Cc2c[nH]c3c(C)cccc23)NC(=O)[C@H]([C@@H](C)O)NC(=O)[C@H](CC(N)=O)NC(=O)[C@@H]2CSSC[C@H](NC1=O)C(=O)N[C@@H](Cc1ccc(OCCN(C)C)cc1)C(=O)N[C@@H](Cc1ccc3ccccc3c1)C(=O)NC(C)(C)C(=O)N[C@H](C(=O)N[C@@H](CC(N)=O)C(=O)N[C@@H](Cc1c[nH]cn1)C(=O)NCCC(N)=O)CCC(=O)NCCCCC(=O)N2 [compound 48] ([Ava]CNT[Trp(7-Me)]K(Ac)CY(Me2NCH2CH2)[2Nal][Aib]ENH[βAla]-NH2; disulfide 2-7; lactam N-11)
3. CC(=O)NCCCC[C@@H]1NC(=O)[C@H](Cc2c[nH]c3c(C)cccc23)NC(=O)[C@H]([C@@H](C)O)NC(=O)[C@H](CC(N)=O)NC(=O)[C@@H]2CSSC[C@H](NC1=O)C(=O)N[C@@H](Cc1ccc(OCCN(C)C)cc1)C(=O)N[C@@H](Cc1ccc3ccccc3c1)C(=O)NC1(CCOCC1)C(=O)N[C@H](C(=O)N[C@@H](CO)C(=O)N[C@@H](Cc1cccnc1)C(=O)N(C)CC(N)=O)CCC(=O)NCCCCC(=O)N2 [compound 56] ([Ava]CNT[Trp(7-Me)]K(Ac)CY(Me2NCH2CH2)[2Nal][Thp]ES[3Pal][Sar]-NH2; disulfide 2-7; lactam N-11)
4. C[C@@H](O)[C@@H]1NC(=O)[C@H](CC(N)=O)NC(=O)[C@@H]2CSSC[C@H](NC(=O)[C@H](CCC(N)=O)NC(=O)[C@H](Cc3c[nH]c4ccccc34)NC1=O)C(=O)N[C@@H](Cc1ccc(OCCN(C)C)cc1)C(=O)N[C@@H](Cc1ccc3ccccc3c1)C(=O)NC(C)(C)C(=O)N[C@H](C(=O)N[C@@H](CC(N)=O)C(=O)N[C@@H](CC(N)=O)C(N)=O)CCCCN(C)C(=O)CCC(=O)N2

Result string:
1. 9.30
2. 9.55
3. 9.24
4. 9.23
